Provenance of the data: PubChem BioAssay (NCATS)

So I've got a bunch of compounds here, and I need their Potency values.
assay: BET inhibitor-based combinations targeting novel dependencies in MECOM-rearranged (r) AML: HNT-34 cell line (AID 2202234); conditions: HNT-34 AML viability, CellTiter-Glo luminescence, 48 h; series mostly up to 46 µM; further: potency means the concentration at half of the fitted maximal effect; nearly all actives have a fitted effect of over 35% in size
Results filed as inconclusive are left out. Active and inactive are the calls of the source. The call rests on the fitted dose curve; in most records, active means well fitted inhibition curve with a large enough effect; inconclusive means small, poorly fitted or top-dose-only effect; inactive means no such curve, though single readings can be large or run the other way.

Which value of Potency has been reported for `CC[C@@H]1[C@H](F)C(=O)N[C@@H]1COc1nccc2cc(C(N)=O)c(OC)cc12` in the records?
11800 nM (active)

Which value of Potency has been reported for `COc1cc(Nc2ncc(F)c(Nc3ccc4c(n3)N(COP(=O)(O)O)C(=O)C(C)(C)O4)n2)cc(OC)c1OC` in the records?
2090 nM (active)

Which value of Potency has been reported for `COc1ccc(OC)c(-c2nnc3ccc(-c4ccc(OC)c(O[C@@H]5CCOC5)c4)nn23)c1` in the records?
1050 nM (active)

----------
biological target: Aldehyde dehydrogenase, mitochondrial (Homo sapiens) (UniProt P05091); assay: qHTS for Inhibitors of the Aldehyde Dehydrogenase Family (ALDH2) Primary screen (AID 2061308); conditions: ALDH2 enzyme inhibition qHTS, 1536-well; series mostly up to 56 µM; further: nearly all actives have a fitted effect of over 55% in size
Inconclusive results are not listed. The source made the active and inactive calls. The call rests on the fitted dose curve; in most records, active means well fitted inhibition curve with a large enough effect; inconclusive means small, poorly fitted or top-dose-only effect; inactive means flat fitted curve, though single readings scatter.
Respond with a class label; see y (active), n (inactive)

Record request — test call for `CC(C)c1ccccc1-c1ncc(F)c(NCc2ccc(-n3ccnn3)cc2)n1`
n

Record request — test call for `CCC(=O)NS(=O)(=O)c1ccc(-c2c(-c3ccccc3)noc2C)cc1`
n

Record request — test call for `O=C(NCCc1nc2ccccc2n1CCOc1ccc(C(F)(F)F)cc1)C1CCCCC1`
n

Record request — test call for `CC(C)(C)Cc1nnc(NC(=O)CSc2ccccc2)s1`
n

Record request — test call for `Cc1cc(N[S+](=O)([O-])c2cc3c(cc2Cl)NC(=O)CO3)ccc1Br`
n

Record request — test call for `FC1(F)Oc2ccc(-c3ccc4ncnc(NCc5cccs5)c4c3)cc2O1`
n

Record request — test call for `CC(=O)Nc1sc2c(c1C#N)CCN(C(C)C)C2`
n

Record request — test call for C=C1C(=O)OC2CC3(C)C(O)C(=O)C=C(C)C3CC12 (stereo not drawn)
n

Record request — test call for `O=C(Nc1cc(C(F)(F)F)cc(C(F)(F)F)c1)Nc1nnc(-c2ccncc2)s1`
n

Record request — test call for `Cc1nnc(-c2ccccc2[N+](=O)[O-])n1CCCn1ccnc1`
n

Record request — test call for `Cc1cc(C)n2ncc(C(=O)Nc3ccc4c(c3)CCC4)c2n1`
n

Record request — test call for `Cc1ccnc(NC(=S)N2CCN(c3cccc(C(F)(F)F)n3)CC2)c1`
n

Record request — test call for `Cc1cc2c(s1)c1cnn(Cc3cccc(Cl)c3F)c(=O)c1n2C`
n

Record request — test call for `Cc1ccc(-c2ccc(=O)n(CC(=O)NCc3ncc[nH]3)n2)cc1`
n

Record request — test call for `FC(F)(F)c1ccccc1-c1nc(NCc2ccc(-c3ccc4ccccc4c3)cc2)c2ccccc2n1`
n

Record request — test call for `O=C(NCCc1nc2ccccc2n1CCOc1ccc(F)cc1)C1CCCCC1`
n

Record request — test call for `NC(=O)C1CCN(c2nccc(-c3ccc4c(c3)OCCCO4)n2)CC1`
n

Record request — test call for `CCc1ccccc1-c1nc(NCc2ccc(-c3cccnc3)cc2)c2ccccc2n1`
n

Record request — test call for COc1cc(OC)c(C(CC(=O)N2CC(C)CC(C)C2)c2ccc3c(c2)OCO3)c(OCC(N)=O)c1 (stereo not drawn)
n

Record request — test call for `O=C1CCc2cc(S(=O)(=O)Nc3ccc(F)c(Cl)c3)c(F)cc2N1`
n

Record request — test call for `O=C1Nc2cc(Cl)ccc2Nc2cscc21`
y

Record request — test call for `CN1CCN(C(=O)c2ccc(-c3cnc4c(O)ccc(C(=O)O)c4c3)cc2)CC1`
n

Record request — test call for `COc1cccc(CN(C)c2ccc([S+](=O)([O-])Nc3nccs3)cc2)c1O`
n

Record request — test call for `CONC(=O)C[C@@H](C#N)NC(=O)[C@@H]1CCCN1C(=O)[C@@H](NC(=O)c1ccc(N)c(Cl)c1)C(C)(C)C`
n

Record request — test call for `O=C1CCc2cc(S(=O)(=O)Nc3ccc(Cl)c(Cl)c3)ccc2N1`
n

Record request — test call for `Cc1cc(CN2CCN(c3c(Br)cnc4nc(-c5ccc(N6CCN(C)CC6)cc5)[nH]c34)CC2)no1`
n

Record request — test call for `CCCc1cc(C)[nH]c(=O)c1CNC(=O)c1cc(-c2ccc(N3CCN(C(C)C)CC3)nc2)cc2c1cnn2C(C)C`
n

Record request — test call for `CC(C)c1ccc(=O)n(CC(=O)NCCc2ccccc2)n1`
n

Record request — test call for `C[C@H](CN(C)C)Oc1nc(Nc2cc3cccc(Cl)c3cn2)cnc1C#N`
n

Record request — test call for `N#Cc1nc(Nc2cc(F)cc(Cl)c2)nc(NC2CCCC2)n1`
n

Record request — test call for `Cc1nc(Nc2ccccc2)c2nc(-c3ccccc3)n(CCN3CCOCC3)c2n1`
n

Record request — test call for `Cc1cc(C)n2ncc(C(=O)Nc3ccncc3)c2n1`
n

Record request — test call for `CCCn1c(C)nc2c(N(CCN(CC)CC)CCN(CC)CC)nc(C)nc21`
n

Record request — test call for `Cc1cc(C)nc(NC(=S)N2CCN(C3=Nc4ccccc4Oc4ccccc43)CC2)c1`
n

Record request — test call for `CC1=CC2=C(C)C(=O)[C@](C)(O)[C@H](O)C2=CO1`
n

Record request — test call for `Cc1nnc(-c2cnn(C)c2N)n1CCCc1ccncc1`
n

Record request — test call for `O=C(Nc1ccc(-c2ccccc2)nc1)c1cccs1`
n

Record request — test call for c1nc(NCCC2CCCO2)c2cc(-c3ccc4c(c3)OCO4)ccc2n1 (stereo not drawn)
n

Record request — test call for `Cc1ccc(-c2cc(C(=O)Nc3ccc(C(=O)O)cc3)c3ccccc3n2)cc1C`
n

Record request — test call for `COc1ccc(C2=Nn3c(nnc3-c3ccccc3Cl)SC2)cc1OC1CCCC1`
n

Record request — test call for `COc1ccc(C2=Nn3c(nnc3-c3ccccc3C(F)(F)F)SC2)cc1OCC1CC1`
n

Record request — test call for `Cn1cnc(CCNc2ncnc3ccc(-c4ccc5c(c4)OCO5)cc23)c1`
n

Record request — test call for `Cc1ccc(-c2cc(C(=O)Nc3ccc(-n4cccn4)cc3)c3ccccc3n2)cc1C`
n

----------
test: BET inhibitor-based combinations targeting novel dependencies in MECOM-rearranged (r) AML: AML-191 cell line (AID 2202236; further: nearly all actives have a fitted effect of over 35% in size); conditions: AML-191 viability, CellTiter-Glo luminescence, 48 h; series mostly up to 46 µM
Records with an inconclusive call do not appear. Calls of active or inactive are those of the source. Calls follow the shape of the dose curve; as a rule, active = well fitted inhibition curve with a large enough effect; inconclusive = small, poorly fitted or top-dose-only effect; inactive = flat fitted curve, though single readings scatter.
Respond with a class label; see true = active, false = inactive

Record request — test call for `CN1C(=O)[C@@H](NC(=O)c2cc(Cc3ccccc3)on2)COc2ccccc21`
false

Record request — test call for `CCN(CC)CCNC(=O)c1c(C)[nH]c(/C=C2/C(=O)Nc3ccc(-c4csc(-c5ccccc5)n4)cc32)c1C`
true

Record request — test call for `CN1CCN(c2ccc3nc(-c4c(N)c5c(F)cccc5[nH]c4=O)[nH]c3c2)CC1`
true

Record request — test call for `CC(=O)Nc1ccc(C(=O)NC(C)(C)C)cc1`
false

Record request — test call for `CN[C@@H]1C[C@H]2O[C@@](C)([C@@H]1OC)n1c3ccccc3c3c4c(c5c6ccccc6n2c5c31)C(=O)N[C@H]4O`
true

Record request — test call for `CN(C)CCN1C(=O)c2cccc3cc(NC(N)=O)cc(c23)C1=O`
true

Record request — test call for `Nc1ccn([C@@H]2O[C@H](CO)[C@@H](O)[C@H]2O)c(=O)n1`
false

Record request — test call for `CCCc1nc(C)c2c(=O)[nH]c(-c3cc(S(=O)(=O)N4CCN(CC)CC4)ccc3OCC)nn12`
false

Record request — test call for C=C1CCC2[C@](C)(CO)C(O)CC[C@]2(C)C1C/C=C1/C(=O)OCC1O (some centres not stated)
true

Record request — test call for `CC[C@H]1OC(=O)[C@H](C)C(=O)[C@H](C)[C@@H](O[C@H]2O[C@H](C)C[C@H](N(C)C)[C@H]2O)[C@](C)(OC)C[C@@H](C)C(=O)[C@H](C)[C@H]2N(CCCCn3cnc(-c4cccnc4)c3)C(=O)O[C@]12C`
false

Record request — test call for `CON(C)C(=O)N1N=C(c2cc(F)ccc2F)S[C@@]1(CCCN)c1ccccc1`
true

Record request — test call for `O=c1[nH]c(=O)n([C@H]2C[C@H](O)[C@@H](CO)O2)cc1F`
true

Record request — test call for `Cc1ccc2cc(-c3c(C)ccc(C(=O)c4c(-c5ccccc5)n(C)n(-c5ccccc5)c4=O)c3N)ccc2n1`
false

Record request — test call for COc1ccc2[nH]c(S(=O)Cc3ncc(C)c(OC)c3C)nc2c1 (configuration not stated)
false

Record request — test call for `CCOc1cc(CC(=O)N[C@@H](CC(C)C)c2ccccc2N2CCCCC2)ccc1C(=O)O`
false

Record request — test call for `CC[C@H](C)[C@@H]([C@@H](CC(=O)N1CCC[C@H]1[C@H](OC)[C@@H](C)C(=O)N[C@@H](Cc1ccccc1)c1nccs1)OC)N(C)C(=O)[C@@H](NC(=O)[C@H](C(C)C)N(C)C)C(C)C`
false

Record request — test call for CC(C)(C)C[C@H]1N[C@@H](C(=O)NC2CCC(O)CC2)[C@H](c2cccc(Cl)c2F)[C@@]12C(=O)Nc1cc(Cl)ccc12 (some centres not stated)
true
